The following compounds are listed with their measured log p [b] values.
# ASSAY_PROTOCOL: logP by HPLC on reversed-phase columns (EEC Directive 79/831 Annex V.A8)
# Format: physicochemical
# MEASUREMENT_SETUP: pH 2.7
Enter a number only.

Sample answers from the record:
- COMPOUND: "CCCCOC(OCCCC)c1cccc(Nc2ncc(Cl)c(NC3CC3)n2)c1 [Example 66]"
  MEASURE_NAME: "log p [b]"
  ASSAY_VALUE: 4.64
- COMPOUND: "ClCC1COC(c2cccc(Nc3ncc(Cl)c(NC4CC4)n3)c2)O1 (stereo not shown) [Example 33]"
  MEASURE_NAME: "log p [b]"
  ASSAY_VALUE: 2.19
- COMPOUND: "C=CCOCC1COC(c2cccc(Nc3ncc(Cl)c(NC4CC4)n3)c2)O1 (stereo not shown) [Example 34]"
  MEASURE_NAME: "log p [b]"
  ASSAY_VALUE: 2.25
- COMPOUND: "CC1(C)COC(c2cccc(Nc3ncc(Br)c(NC4CCC4)n3)c2)OC1 [Example 21]"
  MEASURE_NAME: "log p [b]"
  ASSAY_VALUE: 3
- COMPOUND: "CC1OC(c2cccc(Nc3ncc(Br)c(NC4CCC4)n3)c2)OC1C (stereo not shown) [Example 17]"
  MEASURE_NAME: "log p [b]"
  ASSAY_VALUE: 2.67

Inquiry: Need log p [b] of Clc1cnc(Nc2cccc(C3OCCO3)c2)nc1NC1CCC1 [Example 31] , thanks.
Reply text: 1.91

Inquiry: Need log p [b] of CC1(C)COC(c2cccc(Nc3ncc(C(F)(F)F)c(NC4CCC4)n3)c2)OC1 [Example 26] , thanks.
Reply text: 4.22

Inquiry: Need log p [b] of CC1COC(c2cccc(Nc3ncc(Cl)c(NC4CC4)n3)c2)OC1 (stereo not shown) [Example 101] , thanks.
Reply text: 2.1

Inquiry: Need log p [b] of SCCOC(OCCS)c1cccc(Nc2ncc(Cl)c(NC3CC3)n2)c1 [Example 4] , thanks.
Reply text: 1.36

Inquiry: Need log p [b] of CCCCC1COC(c2cccc(Nc3ncc(Cl)c(NC4CC4)n3)c2)O1 (stereo not shown) [Example 39] , thanks.
Reply text: 3.16
